- System: HOP-92
- Test method notes: NCI tumour cell line growth inhibition, 48 h
Activity calls are given as the source filed them. Cut-off read from the data, not from the text of the source: active = GI50 up to about 1.1 µM and inactive = higher.
Field 'call' accepts active, inactive

Inquiry: Fill in: this test's call for "CC(=O)c1c(O)nnc(-c2ccc(Cl)cc2)c1-c1ccc(Cl)cc1" is ___
Reply text: inactive

Inquiry: Just curious, what result did "C[C@]12CC[C@H]3[C@@H](CC=C4C[C@@H](O)CC[C@@]43C)[C@@H]1C/C(=C\c1cccnc1)[C@@H]2O" get here?
Reply text: inactive

Inquiry: Dear colleague, could you share the recorded outcome for "COCn1c(C)c(C)c2c(=O)oc(N(C)C)nc21" when you have a moment?
Reply text: inactive

Inquiry: Please indicate how the test categorized "Cc1nc2nnc(C)n2c2c1C(=O)Nc1ccccc1N2" .
Reply text: inactive

Inquiry: Call for entry Oc1ccc(/C=C/c2cc(O)cc3c2C(c2cc(O)cc(O)c2)C(c2ccc(O)c(O)c2)O3)cc1 (stereo not given) :
Reply text: inactive

Inquiry: Could you kindly confirm the outcome this assay logged for "O=C(Cn1c(C(=O)/C=C/c2ccc(Cl)cc2)nc2ccccc21)c1ccc(Cl)cc1" ?
Reply text: inactive

Inquiry: # outcome recorded in this test, key = CC1CC/C(=C\c2ccc(F)cc2)C2=C1C(c1ccc(F)cc1)n1c(s/c(=C/c3cccc(Br)c3)c1=O)=N2 (stereo not given)
Reply text: inactive

Inquiry: Give the logged outcome of this assay for the following compound: "O=C1NC(N2CCCCC2)=N/C1=C\c1cccs1"
Reply text: inactive

Inquiry: Recorded test outcome, item "CCS(=O)(=O)CCn1c(=O)c2c(ncn2C)n(C)c1=O"
Reply text: inactive

Inquiry: Query: recorded result category for CC(NC(=O)C(N)Cc1ccc(O)cn1)C(=O)O (stereo not given) in this test
Reply text: inactive

Inquiry: What was the test verdict on CC(C)(C)c1cc(C(O)(C(F)(F)F)C(F)(F)F)c2c(c1)C(C(F)(F)F)(C(F)(F)F)OC(c1ccccc1)(C(C)(C)C)N2 (stereo not given) ?
Reply text: active

Inquiry: Give the logged outcome of this assay for the following compound: Oc1ccc(C2Oc3cc(O)cc4c3C2c2cc(O)cc3c2C(c2cc(O)cc5c2C4C(c2ccc(O)cc2)O5)C(c2ccc(O)cc2)O3)cc1 (stereo not given)
Reply text: inactive

Inquiry: Would you mind telling me which call this test gave Clc1ccc(C(c2ccccc2Cl)C(Cl)Cl)cc1 (stereo not given) [MITOTANE] ?
Reply text: inactive

Inquiry: Can you look up the reported call for CCOC(=O)C(Cc1ccc(OC(=O)c2ccc(OC)cc2OC)cc1)NC(=O)C(F)(F)F (stereo not given) for me?
Reply text: inactive

Inquiry: # fetch the recorded call for "Cc1nc2c(n1CC(C)(C)C)C(=O)c1ccccc1C2=O" here
Reply text: inactive

Inquiry: So what was the verdict on COC(=O)C1(Cc2ccccc2)Cc2c(C)ccc(C)c2C1=O (stereo not given) in this test?
Reply text: inactive

Inquiry: Which result was noted for this compound in the test: O=C1C=C(C2OC(CO)C(O)C2O)C(=O)N1 (stereo not given)
Reply text: inactive

Inquiry: Given "O=[N+]([O-])c1ccc(N/N=C/CC(O)(C(F)(F)F)C(F)(F)F)c([N+](=O)[O-])c1" , state the outcome it received in this test.
Reply text: inactive

Inquiry: Can you look up the reported call for OC1CC1Sc1ccccc1 (stereo not given) for me?
Reply text: inactive

Inquiry: # outcome recorded in this test, key = "COc1cc([C@@H]2c3cc(O)c(OC)cc3C=C(C(N)=O)[C@H]2C(N)=O)ccc1O"
Reply text: inactive
